Data provenance: paper PMC5564622

# System: ABCB1
# protocol.text: ABCB1-mediated drug transport assay (Caco-2 monolayer)
# condition.details: human
measured.quantity: efflux ratio at 120 min, 20 μM
// print number alone

Using the record for COc1cccc2c1C(=O)c1c(O)c3c(c(O)c1C2=O)C[C@@](O)(C(=O)CO)C[C@@H]3O[C@H]1C[C@H](N)[C@H](O)[C@H](C)O1 , state its measured efflux ratio at 120 min, 20 μM.
5.75
